Procedure Details: Inhibition of RIP1 in human U937 cells assessed as reduction in TNFalpha/QVD-Oph-induced necrosis after 24 hrs by Cell Titer-Glo luminescent cell viability assay
pIC50: −log10 of the molar value.
pIC50 of 8 or higher: Fulfilled. Under 8: Not fulfilled.

Challenge: Can `CN1C[C@H](NC(=O)c2cc(Cc3ccccc3)on2)C(=O)N(C)c2ccccc21` be said to have pIC50 at or above 8?
Response given: Not fulfilled

Challenge: // repeat for `CN1C(=O)[C@@H](NC(=O)c2ncc(Cc3ccccc3)o2)COc2ccccc21` and report
Response given: Fulfilled

Challenge: // repeat for `O=C(N[C@H]1CCOc2ccccc2NC1=O)c1cc(Cc2ccccc2)on1` and report
Response given: Not fulfilled

Challenge: // repeat for `CCCCCc1cc(C(=O)N[C@H]2COc3ccccc3N(C)C2=O)no1` and report
Response given: Not fulfilled

Challenge: // repeat for `CN1C(=O)[C@@H](NC(=O)c2c[nH]c(Cc3ccccc3)n2)COc2ccccc21` and report
Response given: Not fulfilled

Challenge: // repeat for `CN1C(=O)[C@@H](NC(=O)c2coc(Cc3ccccc3)n2)COc2ccccc21` and report
Response given: Not fulfilled

Challenge: // repeat for `CN1C(=O)[C@@H](NC(=O)c2cccc(Cc3ccccc3)c2)COc2ccccc21` and report
Response given: Not fulfilled

Challenge: // repeat for `CN1C(=O)[C@@H](NC(=O)c2ncn(Cc3ccccc3)n2)COc2ccccc21` and report
Response given: Fulfilled

Challenge: // repeat for `CN1C(=O)[C@@H](NC(=O)c2nnn(Cc3ccccc3)n2)COc2ccccc21` and report
Response given: Fulfilled

Challenge: // repeat for `CC(C)Cc1cc(C(=O)N[C@H]2COc3ccccc3N(C)C2=O)no1` and report
Response given: Not fulfilled

Challenge: // repeat for `CN1C(=O)[C@@H](NC(=O)c2cc(Cc3ccccc3)on2)COc2ccc(-c3n[nH]c(=O)o3)cc21` and report
Response given: Fulfilled

Challenge: // repeat for `CCN1C(=O)[C@@H](NC(=O)c2cc(Cc3ccccc3)on2)COc2ccccc21` and report
Response given: Not fulfilled

Challenge: // repeat for `CN1C(=O)[C@@H](NC(=O)c2cn(Cc3ccccc3)nn2)COc2ccccc21` and report
Response given: Not fulfilled

Challenge: // repeat for `CN1C(=O)[C@@H](NC(=O)c2cc(CC3CCCCC3)on2)COc2ccccc21` and report
Response given: Not fulfilled

Challenge: // repeat for `CN1C(=O)[C@@H](NC(=O)c2noc(Cc3ccccc3)n2)COc2ccccc21` and report
Response given: Fulfilled

Challenge: // repeat for `CN1C(=O)[C@@H](NC(=O)c2cnn(Cc3ccccc3)c2)COc2ccccc21` and report
Response given: Not fulfilled

Challenge: // repeat for `CN1C(=O)[C@@H](NC(=O)c2cc(Cc3ccccc3)ccn2)COc2ccccc21` and report
Response given: Not fulfilled
